Task for the reader: assign each of the following binders its reported % Cytotoxicity (CDC, Daudi), 1 hour.
measured target: T1, human CD20 (human, UniProt P11836 1-297)
T1 sequence: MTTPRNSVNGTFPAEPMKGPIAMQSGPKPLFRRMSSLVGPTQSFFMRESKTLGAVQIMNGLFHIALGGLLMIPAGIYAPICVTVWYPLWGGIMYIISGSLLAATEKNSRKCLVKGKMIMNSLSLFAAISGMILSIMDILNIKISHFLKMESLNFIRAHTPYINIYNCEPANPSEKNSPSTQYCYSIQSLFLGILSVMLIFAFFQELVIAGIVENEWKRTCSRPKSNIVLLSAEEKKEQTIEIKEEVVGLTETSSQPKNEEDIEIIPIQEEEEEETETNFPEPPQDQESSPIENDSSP
test summary: cell-based or functional assay
Numbers only, in %.

[
  {
    "binder": "6F6-1 (antibody, V domains shown, Fully human IgG, constant region not specified; also called 6F6-1N) VH: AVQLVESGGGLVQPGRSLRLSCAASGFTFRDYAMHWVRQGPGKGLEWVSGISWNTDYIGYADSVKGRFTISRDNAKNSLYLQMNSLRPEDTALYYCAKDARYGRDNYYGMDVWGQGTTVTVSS VL: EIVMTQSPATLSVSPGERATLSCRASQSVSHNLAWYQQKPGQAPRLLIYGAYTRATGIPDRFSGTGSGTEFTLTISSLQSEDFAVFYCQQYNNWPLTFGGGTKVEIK",
    "result number": 97.1
  },
  {
    "binder": "10E3-17 (antibody, V domains shown, Fully human IgG, constant region not specified; also called 10E3-17N) VH: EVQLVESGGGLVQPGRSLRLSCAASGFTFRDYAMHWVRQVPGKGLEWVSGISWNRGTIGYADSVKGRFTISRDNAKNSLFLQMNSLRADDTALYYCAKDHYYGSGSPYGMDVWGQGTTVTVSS VL: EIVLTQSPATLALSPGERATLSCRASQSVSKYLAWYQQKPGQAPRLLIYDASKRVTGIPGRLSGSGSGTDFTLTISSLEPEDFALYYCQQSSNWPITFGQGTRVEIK",
    "result number": 96.2
  },
  {
    "binder": "6B9-4 (antibody, V domains shown, Fully human IgG, constant region not specified; also called 6B9-4N) VH: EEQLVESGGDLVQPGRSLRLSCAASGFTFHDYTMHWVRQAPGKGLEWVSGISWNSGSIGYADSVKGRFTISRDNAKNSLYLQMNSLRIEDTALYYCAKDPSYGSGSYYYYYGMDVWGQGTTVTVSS VL: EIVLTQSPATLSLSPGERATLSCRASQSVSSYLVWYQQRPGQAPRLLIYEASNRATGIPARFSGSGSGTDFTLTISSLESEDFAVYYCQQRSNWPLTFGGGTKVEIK",
    "result number": 98.5
  }
]

The record that follows has no % Cytotoxicity (CDC, Daudi), 1 hour shown yet.
Req: Can you share its % Cytotoxicity (CDC, Daudi), 1 hour? I mean this binder: rituximab (RITUXAN, IDEC Pharmaceuticals Corp.) (antibody, V domains shown) VH: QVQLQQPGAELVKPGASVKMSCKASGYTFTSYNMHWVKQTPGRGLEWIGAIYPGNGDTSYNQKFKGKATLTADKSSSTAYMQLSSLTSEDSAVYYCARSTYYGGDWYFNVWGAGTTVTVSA VL: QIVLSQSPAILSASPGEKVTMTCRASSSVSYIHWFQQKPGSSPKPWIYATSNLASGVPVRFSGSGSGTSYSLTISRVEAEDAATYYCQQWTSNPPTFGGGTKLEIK
Resp: 65.3
